Target: AR (Homo sapiens, UniProt P10275, T878A)
Construct: into the androgen-dependent PCa cells (LNCaP); endogenous in cells; host or cells: LNCaP-ARR2PB-eGFP
Sequence (P10275 1-920 T878A): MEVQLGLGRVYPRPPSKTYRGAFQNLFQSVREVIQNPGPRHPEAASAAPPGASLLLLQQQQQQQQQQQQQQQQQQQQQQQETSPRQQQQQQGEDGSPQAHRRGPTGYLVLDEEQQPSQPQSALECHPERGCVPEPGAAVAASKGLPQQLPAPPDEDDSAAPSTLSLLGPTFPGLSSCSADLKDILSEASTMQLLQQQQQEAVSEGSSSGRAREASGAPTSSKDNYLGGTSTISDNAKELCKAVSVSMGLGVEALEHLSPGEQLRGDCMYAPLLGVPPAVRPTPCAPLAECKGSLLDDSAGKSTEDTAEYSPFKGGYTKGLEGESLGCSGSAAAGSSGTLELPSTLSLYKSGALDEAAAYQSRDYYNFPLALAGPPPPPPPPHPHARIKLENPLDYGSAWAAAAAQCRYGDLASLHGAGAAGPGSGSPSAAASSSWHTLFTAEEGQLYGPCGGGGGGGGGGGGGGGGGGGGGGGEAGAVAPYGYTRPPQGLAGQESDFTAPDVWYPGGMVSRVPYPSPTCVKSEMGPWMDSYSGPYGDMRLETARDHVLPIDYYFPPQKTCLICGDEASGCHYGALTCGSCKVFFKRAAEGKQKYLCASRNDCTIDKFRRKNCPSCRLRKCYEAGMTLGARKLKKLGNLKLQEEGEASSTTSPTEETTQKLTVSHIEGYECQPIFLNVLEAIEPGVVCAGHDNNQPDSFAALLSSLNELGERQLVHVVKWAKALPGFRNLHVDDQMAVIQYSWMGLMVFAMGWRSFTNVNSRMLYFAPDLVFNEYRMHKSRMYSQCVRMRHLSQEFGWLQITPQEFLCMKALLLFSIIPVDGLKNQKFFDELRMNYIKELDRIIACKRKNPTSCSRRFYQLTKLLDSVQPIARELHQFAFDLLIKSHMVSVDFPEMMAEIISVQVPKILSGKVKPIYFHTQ
Assay: AR transcriptional activity, LNCaP-ARR2PB-eGFP reporter cells
Assay type: cell-based
Conditions: read-out: IC50 AR transcriptional activities
pIC50: −log10 of the molar value.
METRIC_NAME: pIC50

CCN(CC)C(C)Cc1nsc(NC(=O)c2cc(-c3cccc(C(F)(F)F)c3)sc2C)n1 (stereo not shown) [Compound C-7]
4.98
COc1cccc(-c2coc(C(=O)Nc3nc(CC(C)=C(F)F)ns3)c2)c1 [Compound G-15]
4.62
Cc1oc(C(=O)Nc2nc(CN3CCN(C)CC3)ns2)cc1-c1cccc(OC(F)F)c1 [Compound F-28]
4.78
Cc1oc(-c2cccc(C(F)(F)F)c2)cc1C(=O)Nc1nc(CN2CCOCC2)ns1 [Compound A-110]
6.60
CC(Cc1nsc(NC(=O)c2cc(-c3cccc(C(F)(F)F)c3)oc2C)n1)=C(F)F [Compound A-80]
6.09
Cc1oc(-c2cccc(C(F)(F)F)c2)cc1C(=O)Nc1nc(CC(C)(C)N)ns1 [Compound A-93]
7.52
CC(=O)Cc1nsc(NC(=O)c2cc(-c3cccc(OC(F)(F)F)c3)oc2C)n1 [Compound A-13]
6.32
Cc1oc(-c2cccc(OC(F)F)c2)cc1C(=O)Nc1nc(CN2CCN(C)CC2)ns1 [Compound A-131]
5.85
Cc1oc(C(=O)Nc2nc(CN3CCCC3)ns2)cc1-c1cccc(C(F)(F)F)c1 [Compound F-24]
4.45
CCOc1cccc(-c2cc(C(=O)Nc3nc(CC(C)=O)ns3)c(C)o2)c1 [Compound A-6]
6.89
CC(F)(F)Cc1nsc(NC(=O)c2cc(-c3cccc(OC(F)(F)F)c3)co2)n1 [Compound G-17]
4.64
Cc1oc(C(=O)Nc2nc(CC(C)N3CCN(C)CC3)ns2)cc1-c1cccc(OC(F)F)c1 (stereo not shown) [Compound F-10]
4.57
CC(F)(F)Cc1nsc(NC(=O)c2cc(-c3cccc(C(F)(F)F)c3)oc2C(F)(F)F)n1 [Compound E-27]
6.02
Cc1oc(-c2cccc(C(F)(F)F)c2)cc1C(=O)Nc1nc(CC(C)(C)O)ns1 [Compound A-90]
7.30
CC(=O)Cc1nsc(NC(=O)c2cc(-c3cccc(OC(F)F)c3)oc2C(F)(F)F)n1 [Compound E-5]
5.83
CC(=O)Cc1nsc(NC(=O)c2cc(-c3cccc(C#N)c3)c(C)o2)n1 [Compound F-2]
4.46
